target.of.assay: human intelectin-1 (hItln-1) (Homo sapiens, UniProt Q8WWA0)
Sequence (Q8WWA0 19-313): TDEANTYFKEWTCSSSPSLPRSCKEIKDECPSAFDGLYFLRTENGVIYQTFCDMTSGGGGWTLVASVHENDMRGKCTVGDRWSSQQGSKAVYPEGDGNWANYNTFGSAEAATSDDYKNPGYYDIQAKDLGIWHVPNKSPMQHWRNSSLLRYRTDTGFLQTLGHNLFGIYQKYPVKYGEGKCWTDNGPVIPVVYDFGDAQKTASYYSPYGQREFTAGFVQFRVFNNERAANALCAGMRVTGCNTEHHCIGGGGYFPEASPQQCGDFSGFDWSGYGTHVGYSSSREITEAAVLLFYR
method.summary: ELISA of hItln-1 binding to immobilized BSA-conjugated monosaccharides
reported.conditions: saccharide conjugated in multiple copies to BSA and immobilized
property.name: binding to hItln-1 by ELISA

>>> value_reported("OC[C@H](O)[C@H]1O[C@H](O)[C@@H](O)[C@@H](O)[C@@H]1O")
"no measurable binding"
>>> value_reported("C=CCO[C@@]1(C(=O)O)O[C@H]([C@H](O)CO)[C@H](O)[C@H](O)[C@@H]1O")
"bound"
>>> value_reported("OC[C@@H](O)[C@H]1O[C@H](O)[C@@H](O)[C@@H](O)[C@@H]1O")
"no measurable binding"
>>> value_reported("OC[C@@H](O)[C@@H]1O[C@@H](O)[C@H](O)[C@H]1O")
"bound"
